assay: autophagy modulators in MEF cells, primary screen, imaging, high-content, MEF GFP-LC3 (AID 463193); conditions: MEF GFP-LC3 puncta imaging, at 10 µM; measured here: cell loss, nuclei count;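 note: cell loss after 18 h compound exposure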
Out of some 190,000 compounds screened, about 1,900 (1%) were called active. For the sample, actives were picked, then their nearest neighbours and some compounds at random.
Listed molecules paired with reported toxicity
Entry rule: numbers only, all in %.

// solved cases for toxicity follow
MOLECULE: CC1Cc2ccccc2N1C1=CC(=O)CC(C)(C)C1 (stereo not given)
READOUT_UNIT: %
toxicity: 3.93
--
MOLECULE: CCCCN(CC(=O)NC(C)(C)C)C(=O)C(=O)Nc1ccc2c(c1)OCCO2
READOUT_UNIT: %
toxicity: 5.19
--
MOLECULE: COCCN(CCOC)C(=S)Nc1ccccc1Cl
READOUT_UNIT: %
toxicity: -8.3
--
MOLECULE: CCOc1ccc2c(c1)cc(CN(C(=O)CC)C1CCCCC1)c1nnnn12
READOUT_UNIT: %
toxicity: 13.7
--
MOLECULE: CCc1nnc(NC(=O)CCCSc2nc3ccccc3[nH]2)s1
READOUT_UNIT: %
toxicity: -3.54
--
MOLECULE: O=c1c2ccccc2nnn1CSc1nnnn1-c1ccccc1
READOUT_UNIT: %
toxicity: 5.05
--
MOLECULE: CCOC(=O)CC(=O)CSc1nc(-c2ccccc2)cc(-c2ccc(Cl)cc2)c1C#N
READOUT_UNIT: %
toxicity: -4.4
--
MOLECULE: CN(c1ccccc1)c1ccc(/C=c2\s/c(=C(/C#N)C(=O)C(C)(C)C)n(Cc3ccco3)c2=O)cc1
READOUT_UNIT: %
toxicity: -2.03

Give recorded toxicity. COC(=O)c1nc2n(n1)C(c1ccc([N+](=O)[O-])cc1)C(C(=O)Nc1ccc(Cl)cc1)=C(C)N2 (stereo not given)
-5.39

Give recorded toxicity. COC(=O)c1sc(N)c(C(=O)OC)c1COC(=O)CNS(=O)(=O)c1ccc(C)cc1
-4.43

Give recorded toxicity. CCOC(=O)c1c(NC(=O)C(C)Sc2c[nH]c3ccccc23)sc2c1CCC2 (stereo not given)
2.6

Give recorded toxicity. Nc1[nH]c(=S)nc2nc(-c3ccccc3)c(-c3ccccc3)nc12
22.7

Give recorded toxicity. CCN(CC)CCCNC(=O)c1ccc2c(=O)n(Cc3ccc4c(c3)OCO4)c(=S)[nH]c2c1
5.92

Give recorded toxicity. CCN(CC)C(=O)CSc1nnc(C2CCCCC2)o1
-0.426

Give recorded toxicity. CCOC(=O)N1CC=C2C(C#N)=C(N)C(C#N)(C#N)[C@H](c3cccs3)[C@H]2C1
-6.29

Give recorded toxicity. Nc1nc(SCC(=O)N2CCN(S(=O)(=O)c3ccc(Cl)cc3)CC2)n[nH]1
-0.836

Give recorded toxicity. CC(=O)N/C(=C/c1ccc(Cl)cc1)C(=O)NCCc1c[nH]c2ccccc12
-16.7

Give recorded toxicity. Cc1c(/C=N\NC(=O)c2cc3ccccc3o2)c2ccccc2n1C
40.9

Give recorded toxicity. O=C1/C(=C\c2ccsc2)NC(=S)N1c1ccccc1
4.12

Give recorded toxicity. COC(=O)NNC1=CC(=O)CC(C)(C)C1
-6.02

Give recorded toxicity. O=C(CSc1nc2ccccc2[nH]1)c1cccs1
5.37

Give recorded toxicity. CCn1nc(C)c(/C=N/NC(=O)Cc2ccc(Cl)cc2)c1C
8.44

Give recorded toxicity. O=c1c2ccccc2nc(CSc2nnnn2-c2ccccc2)n1-c1ccccc1
-13.7
